System: SKVLB (Ovarian; multidrug resistant)
PROCEDURE SUMMARY: In vitro cytotoxicity, microculture tetrazolium (MTT) assay, SKVLB
Assay type: cell-based, Human
APPLIED CONDITIONS: Homo sapiens; SKVLB multidrug resistant ovarian; 48 h with compound, further 48 h, MTT; Table 1
One threshold, 2 µM, splits the recorded IC50 values: lower ones are y, equal or higher ones are n.

Recorded results for 10 compounds are shown here.
COC1OC(C(C)=O)=CC2=C1C(=O)c1ccccc1C2=O (centres unmarked) | y
COCC1(COC)CC2=C(C(=O)c3ccccc3C2=O)[C@H](O[C@H]2C[C@H](NC(=O)C(F)(F)F)[C@H](O)[C@H](C)O2)O1 | n
CO[C@@H]1O[C@H](C(=O)Nc2ccccc2)CC2=C1C(=O)c1ccccc1C2=O (relative stereo) | n
CC(=O)C1CC2=C(C(=O)c3ccccc3C2=O)C(O[C@H]2C[C@H](NC(=O)C(F)(F)F)[C@H](OS(C)(=O)=O)[C@H](C)O2)O1 (mixture of isomers) | y
COC[C@@H]1CC2=C(C(=O)c3ccccc3C2=O)[C@@H](O[C@H]2C[C@H](NC(=O)C(F)(F)F)[C@H](O)[C@H](C)O2)O1 | n
Nc1nc(C2CC3=C(CO2)C(=O)c2ccccc2C3=O)cs1 (centres unmarked) | n
CO[C@@H]1O[C@H](C(=O)O)CC2=C1C(=O)c1ccccc1C2=O (relative stereo) | n
CC(=O)[C@@H]1CC2=C(C(=O)c3ccccc3C2=O)[C@@H](O[C@H]2C[C@H](NC(=O)C(F)(F)F)[C@H](I)[C@H](C)O2)O1 | y
CO[C@H]1C[C@H](O[C@H]2O[C@H](C(C)=O)CC3=C2C(=O)c2ccccc2C3=O)O[C@@H](C)[C@H]1OS(C)(=O)=O | y
CC(=O)[C@H]1CC2=C(C(=O)c3ccccc3C2=O)[C@H](O[C@@H]2O[C@@H](C)[C@@H](O)[C@@H](O)[C@H]2I)O1 | n

# next compound below
In the record for `COC(=O)[C@H](CC(C)C)NC(=O)[C@H](CO[C@H]1O[C@H](C(C)=O)CC2=C1C(=O)c1ccccc1C2=O)NC(=O)OC(C)(C)C` , is IC50 less than 2 µM?
y
